Assignment: determine reported TGI for the given molecules.
Tested on: HCC-2998 colon
Assay Remarks: NCI tumour cell line growth inhibition, 48 h

Query :: // returns reported TGI for input `CC[C@H]1CC(=O)c2c(cc3c(c2O)C(=O)c2ccccc2C3=O)[C@@]1(C#N)C(=O)OC(C)(C)C`
Result :: 17.9 µM

Query :: # lookup: TGI of NC(N)=Nc1ccc(CC(N)C(=O)NCC(=O)C(CC(=O)O)c2ncc(NC(=O)C(F)(F)F)o2)cc1 (stereo not given)
Result :: > 25 µM

Query :: Looking for the measured TGI of CC(=O)O[C@]1(C)CCC2C(C)C(=O)OC2C2C(C)[C@@H](O)CC21 (stereo not given in full) , can you help?
Result :: 58 µM

Query :: Looking for the measured TGI of `O=c1cn[nH]c2nc3ccccc3n12` , can you help?
Result :: > 100 µM

Query :: Which value of TGI has been reported for `CCn1cc(C(=O)O)c(=O)c2ccc(C)nc21` in the records?
Result :: > 100 µM

Query :: Fill blank: measured TGI of the molecule `O=C1CC(=O)c2c(N3CCCC3)sc(N3CCCC3)c21` is ____.
Result :: > 100 µM

Query :: Which measured TGI value corresponds to `O=C1c2ccccc2C(=O)N1[C@@H](Cc1ccccc1)C(=O)n1cccc1CO` ?
Result :: > 100 µM

Query :: If you can, please state the reported TGI value of `CS(=O)(=O)OCOS(C)(=O)=O` .
Result :: > 100 µM

Query :: Would you kindly share the measured TGI for `COc1cc(/C=C/c2cc(/C=C/c3ccc(O)c(OC)c3)n(C(=O)Cc3ccccc3)n2)ccc1O` ?
Result :: 11.3 µM

Query :: Look up TGI: `O=C(C(=O)c1cc(-c2ccccc2)nc2ccc3ccccc3c12)c1ccccc1`
Result :: > 100 µM

---

Test system: A549 NSCLC
Assay Remarks: NCI tumour cell line growth inhibition, 48 h
Could you please report measured GI50 for the items listed next?

Query :: Quick check: GI50 of `N#Cc1cc(-c2ccnc(Nc3ccc(NC(=O)CCl)cc3)n2)ccc1N1CCCC1` ?
Result :: 5.27 µM

Query :: Any idea what its GI50 is? The molecule is `CCOC(=O)c1cc(C(=O)c2cc(OC)cc(OC)c2)n2nc(C)ccc12`
Result :: 0.766 µM

Query :: Give its GI50 value. Item: COc1cc(C2CC(c3ccc(SC)cc3)=NN2C(C)=O)cc(OC)c1OC (stereo not given)
Result :: 9.63 µM

Query :: Please look up its GI50: CSc1ccc(C2=NN(c3ccccc3)C(c3ccc(-c4cc(Cl)c(Cl)cc4Cl)o3)C2)cc1 (stereo not given)
Result :: > 100 µM

Query :: What measured GI50 goes with `CN(C)CCCNc1nc2ccccc2c2c(=O)c3cc(F)ccc3sc12` ?
Result :: 2.04 µM

---

Test system: TK-10 renal
Assay Remarks: NCI tumour cell line growth inhibition, 48 h; in the data active = GI50 below about 0.43 µM; inactive = the rest
Returns: one label drawn from 1 (active), -1 (inactive)

Query :: Could you please tell me the result logged for `O=C(c1ccc(Oc2ccccc2)cc1Cl)c1c[nH]c2ncnc(N[C@@H]3CC[C@@H](CO)OC3)c12` in this assay?
Result :: 1

Query :: Fill in: this test's call for `Oc1ccc(OCCOc2ccc(O)cc2)cc1` is ___
Result :: -1

Query :: # outcome recorded in this test, key = `CCN(Cc1cc(F)cc(F)c1)c1ccc(CO)c(Cl)c1`
Result :: 1

Query :: Give the logged outcome of this assay for the following compound: `COc1ccc(/C=C/C(=O)c2c(O)c(C)c(O)c3c2OC2=CC(O)=C(C(C)=O)C(=O)[C@]23C)cc1`
Result :: -1

Query :: Tell me the assay call for C=C1C(O)C2C(=C(CC(C)C)C13CC3)C(=O)C(C)(C)C2O (stereo not drawn) please.
Result :: -1

Query :: Recorded test call requested for `Cn1c([N+](=O)[O-])cnc1/C=C1\Oc2ccc(Br)cc2C1=O`
Result :: -1

Query :: Called result for `CN(c1ccc(Cl)c(Cl)c1)c1cnc2cc(N)cc(N)c2n1`
Result :: -1

Query :: Given `C1C[OH+]CCNCC[OH+]CC[OH+]CCN1.O.[Cl-].[Pt+4]` , state the outcome it received in this test.
Result :: -1

Query :: Recorded test outcome, item COc1cc(C=C2c3ccccc3C(=O)c3ccccc32)ccc1OCCCCOc1cc2c(cc1OC)C(=O)N1CCCC1C=N2 (stereo not drawn)
Result :: 1

Query :: Which outcome did this test record for the compound `COc1cc(Nc2ncc3c(C)nc(-c4cccc(C(F)(F)F)c4)n3n2)cc(OC)c1OC` ?
Result :: -1

Query :: What did the test return for `CN(C)CCCNc1nc2ccccc2c2c(=O)c3cc(F)ccc3sc12` ?
Result :: -1

Query :: State the result this test recorded for COc1ccc(-c2cc(C(=O)N3N=C(c4ccc(N)cc4)CC3c3ccc(Cl)cc3)c3ccccc3n2)cc1 (stereo not drawn) .
Result :: -1

Query :: Please share the test call associated with `COC1=C(C)C(=O)N2[C@@H]1[C@H](c1ccccc1)OC21C=CC(=O)C=C1` .
Result :: -1

---

Tested on: OVCAR-8 ovarian
Assay Remarks: NCI tumour cell line growth inhibition, 48 h
*1 amine or outer side, *2 acyl side, *3 side chain or, on linkers, in order; H or OH if unused. Where a SMILES comes first, the peptide text is derived from it. [ ]: non-standard residue; d: D form. The star is where a group is joined. ξ: configuration not given here. X53 = CC(C)C[C@H](N[*:1])C1=N[C@H](C(=O)[*:2])CS1; Ile(3ξ) = CCC(C)[C@H](N)C(=O)O; Allyl(1,1-Me2) = C=CC(C)(C)*
Attribute Measured: TGI

Query :: Could you share which TGI value was measured for NC(C/C=C/P(=O)(O)O)C(=O)O (stereo unspecified) ?
Result :: > 100 µM

Query :: So what does the record say about TGI for `FC(F)(F)c1cccc(C=NC23CC4CC(CC(C4)C2)C3)c1` ?
Result :: > 100 µM

Query :: State the recorded TGI for this entry: CC1(C)OC(C(C)(C)O)C(C(C)(C)O)O1 (stereo unspecified)
Result :: > 100 µM

Query :: What value of TGI has been reported for the following molecule? FC(F)(F)c1ccc2c(c1)nc(-c1ccccc1)n2CC1CCCN2CCCCC12 (stereo unspecified)
Result :: 37.9 µM

Query :: Find the recorded TGI belonging to NC(N)=Nc1ccc(CC(N)C(=O)NCC(=O)C(CC(=O)O)c2ncc(NC(=O)C(F)(F)F)o2)cc1 (stereo unspecified) and report it.
Result :: > 25 µM

Query :: Request the reported TGI associated with `Cc1ccc(N=Nc2c(C)nn(-c3ccccc3)c2C)c(Br)c1`
Result :: > 100 µM

Query :: Request the reported TGI associated with `CCOC(=O)C1=C(C#N)S(=O)(=O)c2c(oc(C)c2C)N1`
Result :: > 100 µM

Query :: For the molecule `COc1cc(Nc2ncc3c(C)nc(-c4cccc(C(F)(F)F)c4)n3n2)cc(OC)c1OC` , what TGI is on record?
Result :: 8.91 µM

Query :: Would you mind telling me what TGI value was observed for `O=S1(=O)OCCOS(=O)(=O)C1(I)I` ?
Result :: 59.5 µM

Query :: Data request, read-out TGI, for `CC(C)(C)c1ccc2c(c1)OP1(Oc3cccc4cccnc34)(O2)Oc2ccc(C(C)(C)C)cc2O1`
Result :: > 100 µM

Query :: Which TGI value belongs to `COc1cc(/C=C/[N+](=O)[O-])c([N+](=O)[O-])cc1OC` ?
Result :: 9.46 µM

Query :: Sample `COC(=O)CCCC(=O)C1=Nc2ccccc2CN(c2ccc(Cl)cc2)N1` — what was its TGI?
Result :: > 100 µM

Query :: I would be grateful if you could share the reported TGI for CCOC(=O)CCC(C(=O)OCC)n1nc2ccc(Nc3c(C)[n+]([O-])c4ccc(Cl)cc4[n+]3[O-])cc2n1 (stereo unspecified) .
Result :: 65.7 µM

Query :: Please give the measured TGI for this molecule: COC(=O)/C(C#N)=C1\CCC(OC)N1 (stereo unspecified)
Result :: > 100 µM

Query :: // TGI lookup, key: C=CC(C)(C)OC[C@@H]1NC(=O)CNC(=O)[C@@H]2CCCN2C(=O)[C@H](C(C)CC)NC(=O)[C@@H]2CSC(=N2)[C@H](CC(C)C)NC1=O (stereo partly specified) (cyclo(GS(Allyl(1,1-Me2))[X53][Ile(3ξ)]P))
Result :: > 100 µM

Query :: Endpoint output: TGI of `Nc1ccc(Sc2nnc(N)s2)cc1` . Value?
Result :: > 100 µM

Query :: Item under review: O=c1[nH]cnc2c1ncn2C1CCC(CO)O1 (stereo unspecified) . Reported TGI?
Result :: > 1000 µM

Query :: What value of TGI has been reported for the following molecule? `O=C(C(=O)c1cc(-c2ccccc2)nc2ccc3ccccc3c12)c1ccccc1`
Result :: > 100 µM

Query :: If you can, please state the reported TGI value of `N#Cc1cc(-c2ccnc(Nc3ccc(NC(=O)CCl)cc3)n2)ccc1N1CCCC1` .
Result :: > 25 µM

Query :: Find the recorded TGI belonging to `CN(C)CCCNc1nc2ccccc2c2c(=O)c3cc(F)ccc3sc12` and report it.
Result :: 4.91 µM

Query :: Can you share its TGI? I mean this molecule: O=C(Nc1ccn(C2CCC(CO)O2)c(=O)n1)c1ccccc1 (stereo unspecified)
Result :: > 100 µM
